Molecular target: Cbl-B (Homo sapiens, UniProt Q13191)
Construct: MSD-Based Assay for Degradation of Cbl-B in THP-1 Cells; endogenous in cells; host or cells: THP-1 (title) / Jurkat (protocol text)
Sequence (Q13191 whole entry): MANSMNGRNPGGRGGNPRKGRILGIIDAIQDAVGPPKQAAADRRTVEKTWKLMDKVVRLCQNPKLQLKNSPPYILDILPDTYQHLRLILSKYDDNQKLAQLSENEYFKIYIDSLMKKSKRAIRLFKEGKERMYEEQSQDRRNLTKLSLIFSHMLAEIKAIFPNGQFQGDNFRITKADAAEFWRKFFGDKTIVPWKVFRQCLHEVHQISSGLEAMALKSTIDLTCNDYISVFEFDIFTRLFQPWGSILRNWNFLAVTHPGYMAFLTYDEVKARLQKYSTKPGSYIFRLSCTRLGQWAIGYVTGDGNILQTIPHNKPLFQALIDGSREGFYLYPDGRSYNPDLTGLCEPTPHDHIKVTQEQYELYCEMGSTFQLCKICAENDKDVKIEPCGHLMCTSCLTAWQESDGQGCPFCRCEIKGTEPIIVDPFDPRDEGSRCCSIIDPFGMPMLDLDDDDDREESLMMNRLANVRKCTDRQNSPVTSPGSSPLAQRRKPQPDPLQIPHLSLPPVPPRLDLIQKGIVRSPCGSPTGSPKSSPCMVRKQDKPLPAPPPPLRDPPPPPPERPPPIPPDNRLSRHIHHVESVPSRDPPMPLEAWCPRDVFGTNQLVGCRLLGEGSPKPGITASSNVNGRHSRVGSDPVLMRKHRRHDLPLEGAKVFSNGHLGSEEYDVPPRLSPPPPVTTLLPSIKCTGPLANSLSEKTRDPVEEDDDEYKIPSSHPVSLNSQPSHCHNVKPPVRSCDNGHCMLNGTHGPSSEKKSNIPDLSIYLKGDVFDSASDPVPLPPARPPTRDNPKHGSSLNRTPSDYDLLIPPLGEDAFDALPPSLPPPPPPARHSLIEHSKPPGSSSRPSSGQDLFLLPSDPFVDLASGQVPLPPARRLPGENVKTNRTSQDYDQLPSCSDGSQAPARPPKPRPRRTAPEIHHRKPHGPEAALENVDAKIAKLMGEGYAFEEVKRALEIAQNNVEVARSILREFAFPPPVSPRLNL
Assay: MSD-based assay for degradation of Cbl-B in THP-1 cells
Assay type: cell-based
Settings: Cbl-B degradation, Jurkat cells seeded (heading: THP-1 cells), 24 hours incubation, MSD readout; read-out: Dmax
Known Dmax of a selection of molecules

Reference set (3 entries):
[
  {
    "MOLECULE": "Cn1cnnc1CC1(c2cccc(-n3cc4c(C(F)(F)F)cc(CN5CCC[C@H](OCCN6CCC(CN7CCN(c8ccc9c(c8)CN([C@H]8CCC(=O)NC8=O)C9=O)CC7)CC6)C5)cn4c3=O)c2)COC1 (single isomer, unassigned) [Compound 52]",
    "Dmax": "> 70%"
  },
  {
    "MOLECULE": "Cn1cnnc1[C@@H](c1cccc(N2Cc3c(cc(CN4CCC[C@@H](OCc5ccc(CC6CCN(c7ccc8c(c7)CN([C@@H]7CCC(=O)NC7=O)C8=O)CC6)cc5)C4)cc3C(F)(F)F)C2=O)c1)C1CCC1 (single isomer, unassigned) [Compound 193]",
    "Dmax": "< 30%"
  },
  {
    "MOLECULE": "Cn1cnnc1[C@@H](c1cccc(N2Cc3c(cc(CN4CCC(OCCOCc5ccc(COCCNc6cccc7c6C(=O)N(C6CCC(=O)NC6=O)C7=O)cc5)CC4)cc3C(F)(F)F)C2=O)c1)C1CCC1 (stereo partly shown) [Compound 22]",
    "Dmax": "> 70%"
  }
]

Next up:
Data point: Cn1cnnc1[C@@H](c1cccc(-n2cc3c(C(F)(F)F)cc(CN4CCC(CCN5CCC(CC6CCN(c7ccc8c(c7)CN([C@@H]7CCC(=O)NC7=O)C8=O)CC6)CC5)CC4)cn3c2=O)c1)C1CCC1 [Compound 163] ; Dmax = < 30%
